System: NOMO1
Test: cell viability relative to DMSO control; higher = less cytotoxic
Conditions: RPMI 5 mM glucose + 10% FBS; 48 h; 0.0632 µM
# cell viability listing for each entry below
Please give a number only; it is taken to be in %.

For orientation, consider the following solved cases.
INSERT INTO assay_data (chemicalstructure, targetortestsystem, recordednumber) VALUES
  ('COc1cc2cc(c1Cl)N(C)C(=O)C[C@H](OC(=O)C(C)C)[C@]1(C)O[C@@H]1[C@H](C)[C@@H]1C[C@@](O)(NC(=O)O1)[C@H](OC)/C=C/C=C(\C)C2', 'NOMO1', 27.3),
  ('CC(C)[C@H](O)C(=O)N[C@@H](C)C(=O)N[C@@H]1C(=O)N(C)CCc2ccccc21', 'NOMO1', 117),
  ('CCOc1cc(C(=O)Nc2ccc(Cl)c(-c3nc4ccccc4[nH]3)c2)cc(OCC)c1OCC', 'NOMO1', 93),
  ('CN(C)CCc1c[nH]c2ccc(Cn3cncn3)cc12', 'NOMO1', 91.5),
  ('Cc1ccc(C(=O)Nc2ccc([S+](=O)([O-])O)c3cc([S+](=O)([O-])O)cc([S+](=O)([O-])O)c23)cc1NC(=O)c1cccc(NC(=O)Nc2cccc(C(=O)Nc3cc(C(=O)Nc4ccc([S+](=O)([O-])O)c5cc([S+](=O)([O-])O)cc([S+](=O)([O-])O)c45)ccc3C)c2)c1', 'NOMO1', 90.4);

# ---- query compound ----
query: Look at this compound and give its reported cell viability. CC(C)C[C@H](CC(=O)O)C(=O)N[C@@H](Cc1c[nH]c2ccccc12)C(=O)N[C@@H](C)c1ccccc1
result: 109
